Please provide measured IC90 for the entries that follow.
system: Mycobacterium bovis BCG str. ATCC 35743; test: Antitubercular activity against dormant Mycobacterium bovis BCG ATCC 35743 incubated for 40 mins by XTT Reduction Menadione Assay; assay type: functional
Field format: number, assumed µg/mL, no unit text.

For Cc1ccc2cc(/C=C3\SC(=S)NC3=O)c3nnnn3c2c1 the compound record lists IC90 as 2.01

For Cc1ccc2cc(/C=C3\SC(=S)N(CCC(=O)O)C3=O)c3nnnn3c2c1 the compound record lists IC90 as 45.4

For CO[C@H]1/C=C/O[C@@]2(C)Oc3c(C)c(O)c4c(O)c(c(/C=N/N5CCN(C)CC5)c(O)c4c3C2=O)NC(=O)/C(C)=C\C=C\[C@H](C)[C@H](O)[C@@H](C)[C@@H](O)[C@@H](C)[C@H](OC(C)=O)[C@@H]1C the compound record lists IC90 as 0.89

For Cc1ccc2cc(/C=C3\SC(=S)N(CC(=O)O)C3=O)c3nnnn3c2c1 the compound record lists IC90 as 24.2

* * *

experiment: Cytotoxicity against human PANC1 cells after 48 hrs by MTT assay; type: cell-based, PANC-1; conditions: PANC1 cells
MEASURED_PARAMETER: GI50 at 48 h

For COc1ccc2cc(/C=C3\SC(=S)N(CC(=O)O)C3=O)c3nnnn3c2c1 the compound record lists GI50 at 48 h as > 100 µg/mL

For CO[C@H]1/C=C/O[C@@]2(C)Oc3c(C)c(O)c4c(O)c(c(/C=N/N5CCN(C)CC5)c(O)c4c3C2=O)NC(=O)/C(C)=C\C=C\[C@H](C)[C@H](O)[C@@H](C)[C@@H](O)[C@@H](C)[C@H](OC(C)=O)[C@@H]1C [RIFAMPIN] the compound record lists GI50 at 48 h as > 100 µg/mL

For Cc1ccc2c(c1)cc(/C=C1\SC(=S)N(CC(=O)O)C1=O)c1nnnn12 the compound record lists GI50 at 48 h as > 100 µg/mL

For CC(=O)O[C@H]1C(=O)[C@@]2(C)[C@H]([C@H](OC(=O)c3ccccc3)[C@]3(O)C[C@H](OC(=O)[C@H](O)[C@@H](NC(=O)c4ccccc4)c4ccccc4)C(C)=C1C3(C)C)[C@]1(OC(C)=O)CO[C@@H]1C[C@@H]2O [PACLITAXEL] the compound record lists GI50 at 48 h as 0.128 µg/mL

For Cc1cccc2cc(/C=C3\SC(=S)NC3=O)c3nnnn3c12 the compound record lists GI50 at 48 h as > 100 µg/mL

For Cc1ccc2cc(/C=C3\SC(=S)N(CCC(=O)O)C3=O)c3nnnn3c2c1 the compound record lists GI50 at 48 h as > 100 µg/mL

For Cc1ccc2c(c1)cc(/C=C1\SC(=S)NC1=O)c1nnnn12 the compound record lists GI50 at 48 h as 42 µg/mL

* * *

assay: Selectivity index, ratio of GI50 for human THP1 cells to MIC for Mycobacterium bovis BCG ATCC 35743; type: toxicity, cell-based, THP-1; settings: read-out: Selectivity Index
Please provide measured selectivity ratio for the entries that follow.
Give only the figure.

For COc1ccc2cc(/C=C3\SC(=S)N(CC(=O)O)C3=O)c3nnnn3c2c1 the compound record lists selectivity ratio as 4.13

For Cc1ccc2cc(/C=C3\SC(=S)NC3=O)c3nnnn3c2c1 the compound record lists selectivity ratio as 49.8

* * *

tested on: A549; assay: Cytotoxicity against human A549 cells after 48 hrs by MTT assay; assay type: cell-based; settings: a549, 48 h
Please provide measured GI90 for the entries that follow.

For Cc1ccc2cc(/C=C3\SC(=S)NC3=O)c3nnnn3c2c1 the molecule record lists GI90 as > 100 µg/mL

For O=C1NC(=S)S/C1=C\c1cc2ccccc2n2nnnc12 the molecule record lists GI90 as > 100 µg/mL

For Cc1ccc2cc(/C=C3\SC(=S)N(CCC(=O)O)C3=O)c3nnnn3c2c1 the molecule record lists GI90 as > 100 µg/mL

For Cc1cccc2cc(/C=C3\SC(=S)NC3=O)c3nnnn3c12 the molecule record lists GI90 as > 100 µg/mL

For Cc1ccc2c(c1)cc(/C=C1\SC(=S)NC1=O)c1nnnn12 the molecule record lists GI90 as 63.3 µg/mL

For Cc1ccc2cc(/C=C3\SC(=S)N(CC(=O)O)C3=O)c3nnnn3c2c1 the molecule record lists GI90 as > 100 µg/mL

For CC(=O)O[C@H]1C(=O)[C@@]2(C)[C@H]([C@H](OC(=O)c3ccccc3)[C@]3(O)C[C@H](OC(=O)[C@H](O)[C@@H](NC(=O)c4ccccc4)c4ccccc4)C(C)=C1C3(C)C)[C@]1(OC(C)=O)CO[C@@H]1C[C@@H]2O the molecule record lists GI90 as 0.038 µg/mL

For Cc1ccc2c(c1)cc(/C=C1\SC(=S)N(CC(=O)O)C1=O)c1nnnn12 the molecule record lists GI90 as > 100 µg/mL

For COc1ccc2cc(/C=C3\SC(=S)N(CC(=O)O)C3=O)c3nnnn3c2c1 the molecule record lists GI90 as > 100 µg/mL

* * *

test system: Aspergillus flavus; assay: Antifungal activity against Aspergillus flavus NCIM 539 after 48 hrs by agar cup plate method; assay type: functional; conditions: NCIM 539, 48 h
MEASURED_PARAMETER: MIC
Enter the number, and then the unit.

Kindly note: Aspergillus flavus, Cc1ccc2cc(/C=C3\SC(=S)N(CC(=O)O)C3=O)c3nnnn3c2c1 , MIC value reported: 50 µg/mL

Kindly note: Aspergillus flavus, Cc1cccc2cc(/C=C3\SC(=S)NC3=O)c3nnnn3c12 , MIC value reported: 50 µg/mL

Kindly note: Aspergillus flavus, COc1ccc2cc(/C=C3\SC(=S)N(CCC(=O)O)C3=O)c3nnnn3c2c1 , MIC value reported: 125 µg/mL

Kindly note: Aspergillus flavus, O=C(O)CCN1C(=O)/C(=C/c2cc3ccccc3n3nnnc23)SC1=S , MIC value reported: 150 µg/mL

* * *

experiment: Cytotoxicity against human THP1 cells after 48 hrs by MTT assay; assay type: cell-based, THP-1; settings: thp-1, 48 h
MEASURED_PARAMETER: GI90

For Cc1ccc2c(c1)cc(/C=C1\SC(=S)NC1=O)c1nnnn12 the molecule record lists GI90 as 63.3 µg/mL

For O=C1NC(=S)S/C1=C\c1cc2ccccc2n2nnnc12 the molecule record lists GI90 as > 100 µg/mL

For Cc1cccc2cc(/C=C3\SC(=S)NC3=O)c3nnnn3c12 the molecule record lists GI90 as > 100 µg/mL

For Cc1ccc2cc(/C=C3\SC(=S)NC3=O)c3nnnn3c2c1 the molecule record lists GI90 as > 100 µg/mL

For CC(=O)O[C@H]1C(=O)[C@@]2(C)[C@H]([C@H](OC(=O)c3ccccc3)[C@]3(O)C[C@H](OC(=O)[C@H](O)[C@@H](NC(=O)c4ccccc4)c4ccccc4)C(C)=C1C3(C)C)[C@]1(OC(C)=O)CO[C@@H]1C[C@@H]2O the molecule record lists GI90 as 5.814 µg/mL

For Cc1ccc2cc(/C=C3\SC(=S)N(CC(=O)O)C3=O)c3nnnn3c2c1 the molecule record lists GI90 as > 100 µg/mL

For Cc1ccc2c(c1)cc(/C=C1\SC(=S)N(CC(=O)O)C1=O)c1nnnn12 the molecule record lists GI90 as > 100 µg/mL

For Cc1ccc2cc(/C=C3\SC(=S)N(CCC(=O)O)C3=O)c3nnnn3c2c1 the molecule record lists GI90 as > 100 µg/mL

For COc1ccc2cc(/C=C3\SC(=S)N(CC(=O)O)C3=O)c3nnnn3c2c1 the molecule record lists GI90 as > 100 µg/mL

* * *

test: Cytotoxicity against human A549 cells after 48 hrs by MTT assay; format: cell-based; conditions: A549 cells
Please provide measured GI50 at 48 h for the entries that follow.

For Cc1ccc2cc(/C=C3\SC(=S)N(CC(=O)O)C3=O)c3nnnn3c2c1 the compound record lists GI50 at 48 h as > 100 µg/mL

For CC(=O)O[C@H]1C(=O)[C@@]2(C)[C@H]([C@H](OC(=O)c3ccccc3)[C@]3(O)C[C@H](OC(=O)[C@H](O)[C@@H](NC(=O)c4ccccc4)c4ccccc4)C(C)=C1C3(C)C)[C@]1(OC(C)=O)CO[C@@H]1C[C@@H]2O [PACLITAXEL] the compound record lists GI50 at 48 h as < 0.004 µg/mL

For O=C1NC(=S)S/C1=C\c1cc2ccccc2n2nnnc12 the compound record lists GI50 at 48 h as 79.2 µg/mL

For CO[C@H]1/C=C/O[C@@]2(C)Oc3c(C)c(O)c4c(O)c(c(/C=N/N5CCN(C)CC5)c(O)c4c3C2=O)NC(=O)/C(C)=C\C=C\[C@H](C)[C@H](O)[C@@H](C)[C@@H](O)[C@@H](C)[C@H](OC(C)=O)[C@@H]1C [RIFAMPIN] the compound record lists GI50 at 48 h as > 100 µg/mL

For Cc1ccc2c(c1)cc(/C=C1\SC(=S)NC1=O)c1nnnn12 the compound record lists GI50 at 48 h as 89.2 µg/mL

For Cc1ccc2cc(/C=C3\SC(=S)N(CCC(=O)O)C3=O)c3nnnn3c2c1 the compound record lists GI50 at 48 h as > 100 µg/mL

For Cc1cccc2cc(/C=C3\SC(=S)NC3=O)c3nnnn3c12 the compound record lists GI50 at 48 h as > 100 µg/mL
